The measurements presented in this section are drawn from paper PMC5540273.

System: PRKR;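 further: KINOMEscan kinase panel screen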
Construct: gene EIF2AK2
Details: concentration: 1 μM,replicates: in singlicate; n = 1
// reported %Inh for each item listed
OBSERVABLE: %Inh (%)

{"columns": ["COMPOUND", "MEAS_VALUE"],
 "data": [
  ["O=C(Nc1cccc(C(F)(F)F)c1)c1cccc(Oc2ccc3nccn3n2)c1", 0],
  ["COc1cccc(C2=C(Nc3cccc(Cl)c3)C(=O)NC2=O)c1", 11],
  ["CCn1c(-c2nonc2N)nc2cncc(Br)c21", 36],
  ["CC(C)S(=O)(=O)N1CCN(Cc2ccc3c(c2)nc(NC(=O)c2ccsc2)n3C[C@H](O)c2ccccc2)CC1", 0],
  ["c1ccc(Oc2ccc(Nc3ccnc4ccc(-c5ccccn5)cc34)cc2)cc1", 0],
  ["Cc1ccn2nc(-c3ccc(F)cc3)c(-c3ccncc3)c2c1.Cl", 12],
  ["Cc1cccc(-c2nc(Nc3ccncc3)c3sccc3n2)n1", 54],
  ["O=C(Nc1ccc(Oc2ccc3nc(NC(=O)C4CC4)cn3n2)c(F)c1)c1cccn(-c2ccccc2)c1=O", 0],
  ["CC(=O)c1c(-c2ccncc2)[nH]c(-c2ccncc2)c1C", 0],
  ["O=C(NOCC1CC1)c1cc(Br)c(F)c(F)c1Nc1ccc(I)cc1Cl", 0],
  ["Cc1n[nH]c2cc(Nc3ccnc(Nc4cccc(CN5CCOCC5)c4)n3)ccc12", 23],
  ["Cc1nnc(-c2ccc3occ(-c4ccc(S(C)=O)cc4)c3n2)o1 (stereo not drawn)", 56],
  ["COc1cc2c(Nc3ccc(NC(=O)c4ccccc4)cc3)ncnc2cc1OCCCN1CCOCC1", 0],
  ["Nc1nccc(-c2ccc3c(N)n[nH]c3c2)n1", 0],
  ["Cn1ccc2ncnc(Oc3ccc(NC(=O)Nc4cc(C(C)(C)C)on4)c(Cl)c3)c21", 0],
  ["CN(c1ccc2c(c1)nc(NCc1ccc(F)cc1)n2C)c1ccnc(Nc2ccc(CS(C)(=O)=O)cc2)n1.Cl", 0],
  ["N#Cc1cccc(C(=O)NC2CCN(c3ccnc(Nc4ccc(F)cc4)n3)C2)c1 (stereo not drawn)", 0],
  ["CCOC(=O)N1CCC(n2cnc(-c3ccc(F)cc3)c2-c2ccnc(N)n2)CC1", 0],
  ["Cn1ccc2ncnc(Oc3ccc(NC(=O)Nc4ccnc(C(F)(F)F)c4)c(Cl)c3)c21", 0],
  ["Cl.Cl.NC[C@H](CC1CCCCC1)NC(=O)c1ccc(-c2ccnc3[nH]ccc23)s1", 13],
  ["CSc1nccc(-c2c(-c3ccc(F)cc3)ncn2CCCN2CCOCC2)n1.Cl", 0]
]}
